# study system: T1, extracellular domain of human BCMA (human, UniProt Q02223 1-54)
# T1 construct: amine-linked to Octet AR2G tips; also called hsBCMA; BCMA (human)
# T1 sequence: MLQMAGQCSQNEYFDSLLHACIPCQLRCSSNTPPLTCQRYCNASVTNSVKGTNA
# method: Octet BLI; Fab 200 nM
endpoint name: Kd
Give me the value, and tack the unit on after it.

Item AB200-(2Vk30)_R2-VH-v59 (Fab, V domains shown) VH: QVQLVQSGAEVKKPGSSVKVSCKASGGTFSNYWIHWVRQAPGQGLEWMGGTYRIHSDTYYAQKFKSRVTITADKSTSTAYMELSSLRSEDTAVYYCARGAIYHGYDVIENWGQGTLVTVSS VL: DIQMTQSPSSLSASVGDRVTITCRASQSISSYLNWYQQKPGKAPKLLIYATSNLQIGVPSRFSGSGSGTDFTLTISSLQPEDFATYYCQQYRRIPWTFGQGTKLEIKR has what recorded Kd?
37.8 nM

Give its Kd value. Item: AB200-(2Vk30)_R2-VH-v39 (Fab, V domains shown) VH: QVQLVQSGAEVKKPGSSVKVSCKASGGTFTNYWIHWVRQAPGQGLEWMGATYRIHSDTYYAEKFKSRVTITADKSTSTAYMELSSLRSEDTAVYYCARGAIFHGYDVIDNWGQGTLVTVSS VL: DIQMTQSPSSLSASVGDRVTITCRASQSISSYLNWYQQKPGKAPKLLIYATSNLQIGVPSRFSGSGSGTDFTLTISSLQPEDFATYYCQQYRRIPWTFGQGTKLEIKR
3 nM

// query Kd value for entry AB200-(2Vk30)_R2-VH-v43 (Fab, V domains shown) VH: QVQLVQSGAEVKKPGSSVKVSCKASGGTFTNYWIHWVRQAPGQGLEWMGGTYRIHSDTYYAQKFKSRVTITADKSTSTAYMELSSLRSEDTAVYYCARGAIYHGFDVIDNWGQGTLVTVSS VL: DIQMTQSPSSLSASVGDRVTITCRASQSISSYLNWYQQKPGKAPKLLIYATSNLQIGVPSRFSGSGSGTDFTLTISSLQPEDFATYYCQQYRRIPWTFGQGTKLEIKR
6.82 nM
